assay: Caspase-3/7 induction in CHO-K1 cells by small molecules, qHTS cell viability counter screen (AID 1346979); also: nearly all actives have a fitted effect of over 35% in size
condition-set: CellTiter-Fluor fluorescence, 17 h; series mostly up to 92.4 µM
Inconclusive results are not listed. Active and inactive are the calls of the source. Calls follow the shape of the dose curve; as a rule, active = well fitted cell-killing curve with a large enough effect in the repeat runs; inconclusive = weak or mixed curves, or effect the other way; inactive = no such curve, though single readings can be large or run the other way.
Please reply with one of these outcomes: active, inactive

Examples from the recorded data:
molecule	label-class
CC(C)(C)C(O)/C(=C\c1ccc(Cl)cc1Cl)n1cncn1 (centres undefined)	active
Fc1cccc(Cl)c1CCl	inactive
COC12CC[C@@]3(C[C@@H]1C(C)(O)C(C)(C)C)[C@H]1Cc4ccc(O)c5c4[C@@]3(CCN1CC1CC1)[C@H]2O5 (some centres undefined)	active
C=COCCCl	inactive

Ask: // return assay outcome for Clc1ccc(Oc2ccccc2)cc1
Reply: inactive

Ask: // return assay outcome for COC[C@H](C)N(C(=O)CCl)c1c(C)csc1C
Reply: inactive

Ask: // return assay outcome for O=S(=O)(c1ccc(Cl)cc1)c1ccc(Cl)cc1
Reply: active

Ask: // return assay outcome for CC(C)Oc1cccc(NC(=O)c2ccccc2C(F)(F)F)c1
Reply: active

Ask: // return assay outcome for Oc1ccc(C(=C(Cl)Cl)c2ccc(O)cc2)cc1
Reply: active

Ask: // return assay outcome for COCC(=O)N(c1c(C)cccc1C)[C@H](C)C(=O)OC
Reply: inactive

Ask: // return assay outcome for Oc1ccc2ccc3cccc4ccc1c2c34
Reply: inactive

Ask: // return assay outcome for Cc1ccc(C(=O)Cl)cc1
Reply: inactive

----------
assay: Human pregnane X receptor (PXR) small molecule agonists, qHTS cell viability counter screen (AID 1346977); also: nearly all actives have a fitted effect of over 50% in size
condition-set: PXR-Luc HepG2 viability, CellTiter-Fluor, 24 h; series mostly up to 92.4 µM
Inconclusive results are not listed. Calls of active or inactive are those of the source. Calls follow the shape of the dose curve; as a rule, active = well fitted cell-killing curve with a large enough effect in the repeat runs; inconclusive = weak or mixed curves, or effect the other way; inactive = flat fitted curve, though single readings scatter.
Please reply with one of these outcomes: true (1) for active, false (0) for inactive

compound	label-class
COP(N)(=S)OC	false (0)
CN(CCCC(=O)c1cccnc1)N=O	false (0)
COC12CC[C@@]3(C[C@@H]1C(C)(O)C(C)(C)C)[C@H]1Cc4ccc(O)c5c4[C@@]3(CCN1CC1CC1)[C@H]2O5 (some centres undefined)	true (1)

Please look at the following compound next.
Ask: // return assay outcome for CCCCCCCCCCCCCCC(Br)C(=O)O (centres undefined)
Reply: false (0)

----------
assay: qHTS assay for small molecule agonists of the antioxidant response element (ARE) signaling pathway (AID 743202); as to activation: % is scaled to controls: 0 for no effect and ±100 for the full control effect
condition-set: HepG2 ARE-bla reporter, beta-lactamase FRET, 16 h; series mostly up to 73.3 µM
Results filed as inconclusive are left out. Activity calls are given as the source filed them. Calls come from the whole dose curve; as a rule, active = well fitted activation curve with a large enough effect in the signal ratio in the repeat runs (not every such curve was filed as active); inconclusive = weak or mixed curves, or effect the other way; inactive = no such curve, though single readings can be large or run the other way; the % refers to the signal ratio.
Please reply with one of these outcomes: 1 (active), -1 (inactive)

compound	label-class
CCOc1cc(C(C)(C)C)ccc1C1COC(c2c(F)cccc2F)=N1 (configuration not stated)	1
BrC(Br)Br	-1
CC(c1ccc(O)cc1)c1ccc(O)cc1	1
O=C(CCl)Nc1ccccc1	1
O=C1NCN(c2ccccc2)C12CCN(CC1COc3ccccc3O1)CC2 (configuration not stated)	-1
C=CC(=O)OCCCCOC(=O)C=C	1
CC(C)OS(C)(=O)=O	-1
CC1(c2ccc(Oc3ccccc3)cc2)OC(=O)N(Nc2ccccc2)C1=O (configuration not stated)	1

Ask: // return assay outcome for Fc1ccc(Oc2ccnc3cc(Cl)cc(Cl)c23)cc1
Reply: 1

Ask: // return assay outcome for CCN(CC)c1c([N+](=O)[O-])cc(C(F)(F)F)c(N)c1[N+](=O)[O-]
Reply: -1

Ask: // return assay outcome for N#CCCSCCC#N
Reply: -1

Ask: // return assay outcome for FC(Cl)(Cl)Cl
Reply: -1

Entry source: PubChem BioAssay (Tox21)
